Target: recombinant human DHODH (Homo sapiens, UniProt Q02127)
Construct: DHODH, 31-395aa, Human, His tag, E. coli, ATGP1615; His tag
Sequence (Q02127 31-395): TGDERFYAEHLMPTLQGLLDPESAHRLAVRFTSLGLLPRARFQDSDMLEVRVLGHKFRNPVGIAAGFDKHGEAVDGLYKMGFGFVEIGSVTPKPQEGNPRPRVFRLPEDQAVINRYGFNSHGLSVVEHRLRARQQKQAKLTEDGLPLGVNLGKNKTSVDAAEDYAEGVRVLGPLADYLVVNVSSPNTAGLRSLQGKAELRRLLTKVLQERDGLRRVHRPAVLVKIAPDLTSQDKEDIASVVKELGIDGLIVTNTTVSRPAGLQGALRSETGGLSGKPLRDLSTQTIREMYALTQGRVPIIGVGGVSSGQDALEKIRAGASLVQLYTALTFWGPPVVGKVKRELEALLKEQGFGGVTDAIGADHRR
Experiment: DHODH enzyme reaction inhibition test (DCIP-coupled assay)
Conditions: recombinant human DHODH 0.175 μg/mL, DCIP absorbance 600 nm, 50 minutes, pH 8.0; read-out: Enzyme reaction inhibitory effect (IC50)
measured.attribute: IC50

Specify measured IC50 for CS(=O)(=O)NC(=O)c1nc(C2CC2)cnc1Nc1cc(F)cc(-c2ccc(C#N)cc2)c1OC(F)F [Example 3-55] .
10 to 100 nM

Specify measured IC50 for NNC(=O)c1nc(C2CC2)cnc1Nc1cccc(C2=CCOCC2)c1OCC(F)(F)F [Example 1-8] .
10 to 100 nM

Specify measured IC50 for N#CNC(=O)c1cc(C2CC2)ccc1Nc1cncc(C2=CCOCC2)c1OCC(F)(F)F [Example 3-2] .
< 10 nM

Specify measured IC50 for CS(=O)(=O)NCc1nc(C2CC2)cnc1Nc1cccc(C2=CCOCC2)c1OCC(F)(F)F [Example 1-15] .
≥ 100 nM

Specify measured IC50 for CCOc1ccc(Nc2ncc(C3CC3)nc2C(=O)NS(C)(=O)=O)c(OCC)c1C1=CCOCC1 [Example 3-58] .
< 10 nM

Specify measured IC50 for C[C@H](Oc1c(Nc2ncc(C3CC3)nc2C(=O)NC#N)cccc1C1CCOCC1)C(F)(F)F [Example 3-14] .
< 10 nM

Specify measured IC50 for C[C@H](Oc1c(Nc2ccc(C3CC3)cc2C(=O)NS(C)(=O)=O)cncc1C1=CCOCC1)C(F)(F)F [Example 3-25] .
10 to 100 nM

Specify measured IC50 for N#Cc1ccc(-c2cccc(Nc3ncc(C4CC4)nc3C(=O)NS(N)(=O)=O)c2OC(F)F)cc1 [Example 3-52] .
10 to 100 nM

Specify measured IC50 for O=C(O)c1cc(C2CC2)cnc1Nc1cc(F)cc(C2CCOCC2)c1OC(F)F [Example 2-3] .
< 10 nM

Specify measured IC50 for NCc1nc(C2CC2)cnc1Nc1cccc(C2=CCOCC2)c1OCC(F)(F)F [Example 1-17] .
≥ 100 nM

Specify measured IC50 for C[C@H](Oc1c(Nc2nnc(C3CC3)cc2C(=O)NS(C)(=O)=O)cccc1C1CCOCC1)C(F)(F)F [Example 3-63] .
10 to 100 nM

Specify measured IC50 for C[C@H](Oc1c(Nc2ncc(C3CC3)nc2C(=O)NS(C)(=O)=O)cccc1C1=CCCOC1)C(F)(F)F [Example 3-62] .
10 to 100 nM

Specify measured IC50 for CNNC(=O)c1nc(C2CC2)cnc1Nc1cccc(C2=CCOCC2)c1OCC(F)(F)F [Example 1-12] .
10 to 100 nM

Specify measured IC50 for C[C@H](Oc1c(Nc2ncc(C3CC3)nc2C(=O)NS(N)(=O)=O)cccc1C1=CCOCC1)C(F)(F)F [Example 3-27] .
< 10 nM

Specify measured IC50 for C[C@H](Oc1c(Nc2ccc(C3CC3)cc2C(=O)NS(C)(=O)=O)ccnc1C1=CCOCC1)C(F)(F)F [Example 3-64] .
10 to 100 nM

Specify measured IC50 for CS(=O)(=O)NC(=O)c1nc(C2CC2)cnc1Nc1cccc(-c2ccc(C#N)cc2)c1OC(F)F [Example 3-51] .
< 10 nM

Specify measured IC50 for CCOc1c(Nc2ncc(C3CC3)cc2C(=O)O)ccc(F)c1C1=CCOCC1 [Example 2-15] .
< 10 nM

Specify measured IC50 for C[C@H](Oc1c(Nc2ncc(C3CC3)nc2C(=O)NS(N)(=O)=O)cccc1C1CCOCC1)C(F)(F)F [Example 3-7] .
< 10 nM

Specify measured IC50 for NC(=O)c1nc(C2CC2)cnc1Nc1cccc(C2=CCOCC2)c1OCC(F)(F)F [Example 1-1] .
10 to 100 nM

Specify measured IC50 for O=C(NS(=O)(=O)C(F)(F)F)c1nc(C2CC2)cnc1Nc1cccc(C2=CCOCC2)c1OCC(F)(F)F [Example 3-18] .
10 to 100 nM

Specify measured IC50 for N#CNC(=O)c1cc(C2CC2)cnc1Nc1cccc(C2CCOCC2)c1OCC(F)(F)F [Example 3-6] .
< 10 nM

Specify measured IC50 for O=Cc1nc(C2CC2)cnc1Nc1cccc(C2=CCOCC2)c1OCC(F)(F)F [Example 1-14] .
≥ 100 nM
